Values compiled from BigSolDB 2.1.

statedConditions: in ethylene glycol, 318.15 K
measurementType: solubility (mole fraction)

* Nc1nc(Cl)c2[nH]cnc2n1 | 0.00145

* * *

statedConditions: in n-propanol, 313.15 K
measurementType: solubility (mole fraction)

* Nc1nc(Cl)c2[nH]cnc2n1 | 0.000314

* * *

statedConditions: in n-butanol, 318.15 K
measurementType: solubility (mole fraction)

• Nc1nc(Cl)c2[nH]cnc2n1 = 0.000409

* * *

statedConditions: in DMF, 298.15 K
measurementType: solubility (mole fraction)

• Nc1nc(Cl)c2[nH]cnc2n1 = 0.00427

* * *

statedConditions: in n-propanol, 293.15 K
measurementType: solubility (mole fraction)

* Nc1nc(Cl)c2[nH]cnc2n1 | 0.000174

* * *

statedConditions: in DMSO, 318.15 K
measurementType: solubility (mole fraction)

• Nc1nc(Cl)c2[nH]cnc2n1 = 0.0204

* * *

statedConditions: in n-propanol, 283.15 K
measurementType: solubility (mole fraction)

* Nc1nc(Cl)c2[nH]cnc2n1 | 0.000122

* * *

statedConditions: in DMF, 293.15 K
measurementType: solubility (mole fraction)

- Nc1nc(Cl)c2[nH]cnc2n1: 0.00366

* * *

statedConditions: in ethanol, 308.15 K
measurementType: solubility (mole fraction)

- Nc1nc(Cl)c2[nH]cnc2n1: 0.000153

* * *

statedConditions: in DMF, 318.15 K
measurementType: solubility (mole fraction)

- Nc1nc(Cl)c2[nH]cnc2n1: 0.00771

* * *

statedConditions: in DMF, 323.15 K
measurementType: solubility (mole fraction)

- Nc1nc(Cl)c2[nH]cnc2n1: 0.00888

* * *

statedConditions: in water, 298.15 K
measurementType: solubility (mole fraction)

- Nc1nc(Cl)c2[nH]cnc2n1: 1.24e-05

* * *

statedConditions: in 2-butanone, 308.15 K
measurementType: solubility (mole fraction)

* Nc1nc(Cl)c2[nH]cnc2n1 | 0.000476

* * *

statedConditions: in isobutanol, 293.15 K
measurementType: solubility (mole fraction)

* Nc1nc(Cl)c2[nH]cnc2n1 | 0.000155

* * *

statedConditions: in n-propanol, 323.15 K
measurementType: solubility (mole fraction)

- Nc1nc(Cl)c2[nH]cnc2n1: 0.00042

* * *

statedConditions: in methanol, 323.15 K
measurementType: solubility (mole fraction)

* Nc1nc(Cl)c2[nH]cnc2n1 | 0.000198

* * *

statedConditions: in isobutanol, 318.15 K
measurementType: solubility (mole fraction)

• Nc1nc(Cl)c2[nH]cnc2n1 = 0.000325

* * *

statedConditions: in n-butanol, 308.15 K
measurementType: solubility (mole fraction)

- Nc1nc(Cl)c2[nH]cnc2n1: 0.000316

* * *

statedConditions: in ethylene glycol, 283.15 K
measurementType: solubility (mole fraction)

* Nc1nc(Cl)c2[nH]cnc2n1 | 0.000634

* * *

statedConditions: in methanol, 283.15 K
measurementType: solubility (mole fraction)

* Nc1nc(Cl)c2[nH]cnc2n1 | 3.96e-05

* * *

statedConditions: in ethanol, 318.15 K
measurementType: solubility (mole fraction)

• Nc1nc(Cl)c2[nH]cnc2n1 = 0.000218

* * *

statedConditions: in 1,4-dioxane, 318.15 K
measurementType: solubility (mole fraction)

- Nc1nc(Cl)c2[nH]cnc2n1: 0.000236

* * *

statedConditions: in isopropanol, 323.15 K
measurementType: solubility (mole fraction)

- Nc1nc(Cl)c2[nH]cnc2n1: 0.000314

* * *

statedConditions: in DMSO, 328.15 K
measurementType: solubility (mole fraction)

* Nc1nc(Cl)c2[nH]cnc2n1 | 0.0284

* * *

statedConditions: in DMF, 283.15 K
measurementType: solubility (mole fraction)

- Nc1nc(Cl)c2[nH]cnc2n1: 0.00266

* * *

statedConditions: in methanol, 293.15 K
measurementType: solubility (mole fraction)

• Nc1nc(Cl)c2[nH]cnc2n1 = 6.14e-05

* * *

statedConditions: in n-butanol, 333.15 K
measurementType: solubility (mole fraction)

• Nc1nc(Cl)c2[nH]cnc2n1 = 0.000586

* * *

statedConditions: in DMSO, 323.15 K
measurementType: solubility (mole fraction)

* Nc1nc(Cl)c2[nH]cnc2n1 | 0.024

* * *

statedConditions: in n-butanol, 323.15 K
measurementType: solubility (mole fraction)

• Nc1nc(Cl)c2[nH]cnc2n1 = 0.000461

* * *

statedConditions: in DMSO, 298.15 K
measurementType: solubility (mole fraction)

* Nc1nc(Cl)c2[nH]cnc2n1 | 0.0108

* * *

statedConditions: in 1,4-dioxane, 303.15 K
measurementType: solubility (mole fraction)

• Nc1nc(Cl)c2[nH]cnc2n1 = 0.000135

* * *

statedConditions: in DMF, 328.15 K
measurementType: solubility (mole fraction)

- Nc1nc(Cl)c2[nH]cnc2n1: 0.01

* * *

statedConditions: in methanol, 298.15 K
measurementType: solubility (mole fraction)

• Nc1nc(Cl)c2[nH]cnc2n1 = 7.53e-05

* * *

statedConditions: in methanol, 333.15 K
measurementType: solubility (mole fraction)

- Nc1nc(Cl)c2[nH]cnc2n1: 0.000279

* * *

statedConditions: in DMF, 303.15 K
measurementType: solubility (mole fraction)

* Nc1nc(Cl)c2[nH]cnc2n1 | 0.00497

* * *

statedConditions: in ethanol, 278.15 K
measurementType: solubility (mole fraction)

• Nc1nc(Cl)c2[nH]cnc2n1 = 4.39e-05

* * *

statedConditions: in n-propanol, 308.15 K
measurementType: solubility (mole fraction)

- Nc1nc(Cl)c2[nH]cnc2n1: 0.000274

* * *

statedConditions: in isopropanol, 333.15 K
measurementType: solubility (mole fraction)

- Nc1nc(Cl)c2[nH]cnc2n1: 0.000431

* * *

statedConditions: in DMSO, 333.15 K
measurementType: solubility (mole fraction)

* Nc1nc(Cl)c2[nH]cnc2n1 | 0.0331

* * *

statedConditions: in 2-butanone, 318.15 K
measurementType: solubility (mole fraction)

- Nc1nc(Cl)c2[nH]cnc2n1: 0.000626

* * *

statedConditions: in isobutanol, 288.15 K
measurementType: solubility (mole fraction)

- Nc1nc(Cl)c2[nH]cnc2n1: 0.000131

* * *

statedConditions: in methanol, 278.15 K
measurementType: solubility (mole fraction)

- Nc1nc(Cl)c2[nH]cnc2n1: 3.09e-05

* * *

statedConditions: in methanol, 313.15 K
measurementType: solubility (mole fraction)

• Nc1nc(Cl)c2[nH]cnc2n1 = 0.000137

* * *

statedConditions: in n-propanol, 333.15 K
measurementType: solubility (mole fraction)

- Nc1nc(Cl)c2[nH]cnc2n1: 0.000539

* * *

statedConditions: in 2-butanone, 313.15 K
measurementType: solubility (mole fraction)

* Nc1nc(Cl)c2[nH]cnc2n1 | 0.000547

* * *

statedConditions: in ethylene glycol, 288.15 K
measurementType: solubility (mole fraction)

• Nc1nc(Cl)c2[nH]cnc2n1 = 0.000719

* * *

statedConditions: in DMSO, 313.15 K
measurementType: solubility (mole fraction)

• Nc1nc(Cl)c2[nH]cnc2n1 = 0.0172

* * *

statedConditions: in 2-butanone, 283.15 K
measurementType: solubility (mole fraction)

• Nc1nc(Cl)c2[nH]cnc2n1 = 0.000214

* * *

statedConditions: in isobutanol, 313.15 K
measurementType: solubility (mole fraction)

- Nc1nc(Cl)c2[nH]cnc2n1: 0.00028

* * *

statedConditions: in isopropanol, 308.15 K
measurementType: solubility (mole fraction)

* Nc1nc(Cl)c2[nH]cnc2n1 | 0.000195

* * *

statedConditions: in isopropanol, 298.15 K
measurementType: solubility (mole fraction)

* Nc1nc(Cl)c2[nH]cnc2n1 | 0.000137

* * *

statedConditions: in ethanol, 298.15 K
measurementType: solubility (mole fraction)

* Nc1nc(Cl)c2[nH]cnc2n1 | 0.000105

* * *

statedConditions: in 2-butanone, 323.15 K
measurementType: solubility (mole fraction)

- Nc1nc(Cl)c2[nH]cnc2n1: 0.000723

* * *

statedConditions: in DMSO, 308.15 K
measurementType: solubility (mole fraction)

* Nc1nc(Cl)c2[nH]cnc2n1 | 0.015

* * *

statedConditions: in isobutanol, 283.15 K
measurementType: solubility (mole fraction)

* Nc1nc(Cl)c2[nH]cnc2n1 | 0.000106

* * *

statedConditions: in ethanol, 293.15 K
measurementType: solubility (mole fraction)

* Nc1nc(Cl)c2[nH]cnc2n1 | 8.56e-05

* * *

statedConditions: in 1,4-dioxane, 308.15 K
measurementType: solubility (mole fraction)

* Nc1nc(Cl)c2[nH]cnc2n1 | 0.000162

* * *

statedConditions: in n-butanol, 298.15 K
measurementType: solubility (mole fraction)

* Nc1nc(Cl)c2[nH]cnc2n1 | 0.000242

* * *

statedConditions: in 2-butanone, 278.15 K
measurementType: solubility (mole fraction)

• Nc1nc(Cl)c2[nH]cnc2n1 = 0.000178

* * *

statedConditions: in DMSO, 303.15 K
measurementType: solubility (mole fraction)

* Nc1nc(Cl)c2[nH]cnc2n1 | 0.0127
